test system: HUVEC; experiment: Cytotoxicity against HUVEC assessed as reduction in cell viability; type: cell-based; conditions: Homo sapiens
Listing of recorded IC50 by entry.
A number alone suffices; assume nM.

Molecule | Output Unit | IC50
CCC(C)n1ncn(-c2ccc(N3CCN(c4ccc(OC[C@@H]5CO[C@@](Cn6ncnn6)(c6ccc(Cl)cc6Cl)O5)cc4)CC3)cc2)c1=O (stereo partly drawn) | nM | 124
CCC(C)n1ncn(-c2ccc(N3CCN(c4ccc(OC[C@@H]5CO[C@@](Cn6nnnc6-c6ccccc6)(c6ccc(Cl)cc6Cl)O5)cc4)CC3)cc2)c1=O (stereo partly drawn) | nM | 119

Let us move to another entry and its IC50.
Request: Name the recorded IC50 of the item CCC(C)n1ncn(-c2ccc(N3CCN(c4ccc(OC[C@@H]5CO[C@@](Cn6nnnc6C)(c6ccc(Cl)cc6Cl)O5)cc4)CC3)cc2)c1=O (stereo partly drawn) in your answer.
Result: 101

Data provenance is ChEMBL document CHEMBL4622958.
